assay.target: Peroxisome proliferator-activated receptor alpha (Homo sapiens)
Sequence (Q07869 whole entry): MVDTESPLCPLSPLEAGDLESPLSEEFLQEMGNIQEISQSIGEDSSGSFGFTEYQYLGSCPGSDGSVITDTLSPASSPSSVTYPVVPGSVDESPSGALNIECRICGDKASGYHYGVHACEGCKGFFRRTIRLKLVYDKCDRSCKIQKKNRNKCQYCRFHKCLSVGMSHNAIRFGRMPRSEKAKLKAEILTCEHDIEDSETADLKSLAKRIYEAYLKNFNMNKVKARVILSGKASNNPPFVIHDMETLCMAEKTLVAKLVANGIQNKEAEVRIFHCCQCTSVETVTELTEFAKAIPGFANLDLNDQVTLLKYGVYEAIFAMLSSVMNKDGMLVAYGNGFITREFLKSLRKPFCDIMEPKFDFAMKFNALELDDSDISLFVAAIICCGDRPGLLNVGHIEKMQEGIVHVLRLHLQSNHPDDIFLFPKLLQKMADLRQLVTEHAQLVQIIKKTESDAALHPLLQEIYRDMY
experiment.description: Agonist activity at GAL4-tagged human PPARalpha ligand binding domain chimeric receptor expressed in HEK293 cells after 24 hrs by luciferase reporter gene assay
Just a reminder that ties go to not fulfilled: only EC50 strictly below 0.3 µM counts as fulfilled.

1) COc1ccc(Oc2ccc(-c3noc(C(C)NC(C)=O)n3)cc2)cc1 (stereo not given) : fulfilled
2) CCOc1ccc(Oc2ccc(-c3noc(C(C)NC(C)=O)n3)cc2)cc1 (stereo not given) : not fulfilled

Prompt line: # check: EC50 < 0.3 µM for CC(=O)NC(C)c1nc(-c2ccc(Oc3ccccc3)cc2)no1 (racemic)
Response line: not fulfilled

Prompt line: # check: EC50 < 0.3 µM for CC(=O)N[C@@H](C)c1nc(-c2ccc(Oc3ccccc3)cc2)no1
Response line: fulfilled

Prompt line: # check: EC50 < 0.3 µM for CC(=O)NC(C)c1nc(-c2ccc(Oc3ccc(O)cc3)cc2)no1 (stereo not given)
Response line: not fulfilled

Data origin: ChEMBL document CHEMBL3861985
